Tested on: Mus musculus
Experiment: Anti-inflammatory activity in Kunming Mus musculus (mouse) assessed as inhibition of xylene-induced ear swelling at 200 mg/kg, po administered 1 hr prior to xylene challenge measured after 30 min relative to untreated control
Assay type: functional
inhibition in vivo at 200 mg/kg below 30% gives condition not met; inhibition in vivo at 200 mg/kg at or above it gives condition met.

> print(dat)
                                   compound  qualitative.label
1  COc1ccc(C2(O)/C(=C/c3ccc(C)cc3)CCCC2CN(C)c2ccccc2)cc1 (racemic)  condition not met
2  Cc1ccc(NCC2CCC/C(=C\c3ccccc3)C2=O)cc1 (stereo not given)      condition met
3  CN(CC1CCC/C(=C\c2ccccc2)C1=O)c1ccccc1 (stereo not given)      condition met
4  Cc1ccc(/C=C2\CCCC(CN(C)c3ccc(C)cc3)C2=O)cc1 (stereo not given)  condition not met
5  Cc1cccc(N(C)CC2CCC/C(=C\c3ccc(S(C)(=O)=O)cc3)C2=O)c1 (stereo not given)      condition met

###

System: Mus musculus
Experiment: Analgesic activity in Kunming Mus musculus (mouse) assessed as increase in pain threshold at 200 mg/kg, po after 1 hr by hot plate method (reference value: 4.2%)
Format: functional
Listing of recorded Activity by entry.
experimental_readout: Activity (%)

> print(dat)
                                   compound   system.name  value.observed
1  COc1ccc(C2(O)/C(=C/c3ccc(C)cc3)CCCC2CN(C)c2ccccc2)cc1 (racemic)  Mus musculus          106.84
2  Cc1cccc(N(C)CC2CCC/C(=C\c3ccccc3)C2=O)c1 (stereo not given)  Mus musculus          108.45
3  Cc1ccc(/C=C2\CCCC(CN(C)c3ccccc3)C2=O)cc1 (stereo not given)  Mus musculus           79.04
4  Cc1ccc(N(C)CC2CCC/C(=C\c3ccccc3)C2=O)cc1 (stereo not given)  Mus musculus          146.12
5  Cc1ccc(N(C)CC2CCC/C(=C\c3ccccc3)C2(O)c2ccccc2)cc1 (racemic)  Mus musculus           70.08

###

Tested on: Mus musculus
Assay: Anti-inflammatory activity in Kunming Mus musculus (mouse) assessed as inhibition of xylene-induced ear swelling at 200 mg/kg, po administered 1 hr prior to xylene challenge measured after 30 min relative to untreated control
Format: functional
experimental_readout: inhibition in vivo at 200 mg/kg (%)

> print(dat)
                                    compound  value.observed
 1  COc1ccc(C2(O)/C(=C/c3ccccc3)CCCC2CN(C)c2ccccc2)cc1 (racemic)            26.5
 2  Cc1ccc(/C=C2\CCCC(CN(C)c3cccc(C)c3)C2=O)cc1 (stereo not drawn)            35.4
 3  Cc1cccc(N(C)CC2CCC/C(=C\c3ccccc3)C2(O)c2ccccc2)c1 (racemic)            23.1
 4  COc1cccc(C2(C)/C(=C/c3ccc(C)cc3)CCCC2CN(C)c2ccccc2)c1 (racemic)              18
 5  Cc1ccc(N(C)CC2CCC/C(=C\c3ccccc3)C2(O)c2ccccc2)cc1 (racemic)            66.7
 6  Cc1cccc(N(C)CC2CCC/C(=C\c3ccccc3)C2=O)c1 (stereo not drawn)            44.9
 7  COc1cccc(C2(O)/C(=C/c3ccccc3)CCCC2CN(C)c2ccccc2)c1 (racemic)            34.7
 8  CC(C)Cc1ccc(C(C)C(=O)O)cc1 (stereo not drawn)            40.1
 9  COc1ccc(C2(O)/C(=C/c3ccccc3)CCCC2CN(C)c2ccc(C)cc2)cc1 (racemic)            26.5
10  COc1cccc(C2(O)/C(=C/c3ccc(C)cc3)CCCC2CN(C)c2ccc(C)cc2)c1 (racemic)            22.9
11  COc1ccc(C2(O)/C(=C/c3ccc(C)cc3)CCCC2CN(C)c2cccc(C)c2)cc1 (racemic)            24.5
12  CN(CC1CCC/C(=C\c2ccc(S(C)(=O)=O)cc2)C1=O)c1ccccc1 (stereo not drawn)            46.9
13  Cc1ccc(/C=C2\CCCC(CN(C)c3ccccc3)C2=O)cc1 (stereo not drawn)            39.5
14  COc1cccc(C2(O)/C(=C/c3ccccc3)CCCC2CN(C)c2ccc(C)cc2)c1 (racemic)            41.5
15  Cc1ccc(N(C)CC2CCC/C(=C\c3ccccc3)C2=O)cc1 (stereo not drawn)            18.2
16  COc1cccc(C2(O)/C(=C/c3ccccc3)CCCC2CN(C)c2cccc(C)c2)c1 (racemic)              36
17  COc1ccc(C2(O)/C(=C/c3ccc(C)cc3)CCCC2CN(C)c2ccc(C)cc2)cc1 (racemic)            29.9
18  Cc1ccc(N(C)CC2CCC/C(=C\c3ccc(S(C)(=O)=O)cc3)C2=O)cc1 (stereo not drawn)              27

Values compiled from ChEMBL document CHEMBL3046808.
